Reported Mean % WT Binding values are given for each entry in this list.
Molecular target: human CD33 M348A (human, UniProt P20138 18-364)
Sequence (P20138 18-364 M348A limits assumed): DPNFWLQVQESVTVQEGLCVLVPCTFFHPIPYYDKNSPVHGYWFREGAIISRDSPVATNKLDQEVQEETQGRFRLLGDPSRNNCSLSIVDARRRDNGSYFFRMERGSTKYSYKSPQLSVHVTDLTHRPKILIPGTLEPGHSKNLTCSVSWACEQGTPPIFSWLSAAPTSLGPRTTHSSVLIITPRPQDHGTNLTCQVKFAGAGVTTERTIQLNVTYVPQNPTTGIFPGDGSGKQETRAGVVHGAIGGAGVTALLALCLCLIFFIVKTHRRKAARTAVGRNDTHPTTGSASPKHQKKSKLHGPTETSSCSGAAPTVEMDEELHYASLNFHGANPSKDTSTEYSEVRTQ
Test: flow cytometry, alanine scan

[[record]]
binder = "Refmab #3 (antibody, V domains shown, The alanine scan used IgG or Fab) VH: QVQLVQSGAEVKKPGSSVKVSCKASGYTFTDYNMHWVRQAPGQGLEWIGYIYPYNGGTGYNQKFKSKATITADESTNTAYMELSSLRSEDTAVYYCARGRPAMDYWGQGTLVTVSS VL: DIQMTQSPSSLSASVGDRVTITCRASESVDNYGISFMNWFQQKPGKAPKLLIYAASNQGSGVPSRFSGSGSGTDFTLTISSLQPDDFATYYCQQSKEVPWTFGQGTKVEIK"
recorded_value = "133 % of WT"

[[record]]
binder = "Refmab #1 (antibody, V domains shown, The alanine scan used IgG or Fab; also called hP67.6) VH: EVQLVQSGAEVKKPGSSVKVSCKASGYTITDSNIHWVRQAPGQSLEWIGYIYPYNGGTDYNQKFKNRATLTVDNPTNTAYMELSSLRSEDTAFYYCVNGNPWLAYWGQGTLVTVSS VL: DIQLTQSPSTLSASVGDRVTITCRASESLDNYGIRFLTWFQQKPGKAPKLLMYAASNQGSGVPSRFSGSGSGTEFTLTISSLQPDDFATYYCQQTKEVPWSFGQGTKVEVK"
recorded_value = "83.3 % of WT"

[[record]]
binder = "Refmab #2 (antibody, V domains shown, The alanine scan used IgG or Fab) VH: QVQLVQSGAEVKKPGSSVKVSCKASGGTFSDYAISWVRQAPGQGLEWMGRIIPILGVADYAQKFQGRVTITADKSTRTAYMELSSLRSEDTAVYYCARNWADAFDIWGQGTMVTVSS VL: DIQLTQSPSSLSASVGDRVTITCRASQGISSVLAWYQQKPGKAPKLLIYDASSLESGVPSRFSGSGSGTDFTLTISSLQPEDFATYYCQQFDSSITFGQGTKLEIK"
recorded_value = "115 % of WT"


Now look at this one.
Mean % WT Binding recorded for this binder, Refmab #4 (antibody, V domains shown, The alanine scan used IgG or Fab) VH: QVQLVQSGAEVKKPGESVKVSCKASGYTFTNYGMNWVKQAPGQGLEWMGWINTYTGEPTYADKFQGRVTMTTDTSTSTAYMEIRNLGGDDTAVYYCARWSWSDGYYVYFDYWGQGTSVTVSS VL: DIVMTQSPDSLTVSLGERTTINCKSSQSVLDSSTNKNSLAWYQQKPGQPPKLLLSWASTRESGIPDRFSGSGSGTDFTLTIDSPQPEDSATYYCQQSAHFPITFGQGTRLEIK , is 85 % of WT
